Target: intestinal bile acid transportation system (Na+-dependent) in brush border membrane vesicles of the ileum (Oryctolagus cuniculus)
Construct: Preparation of Brush Border Membrane Vesicles from the Ileum of Rabbits; from tissue; host or cells: brush border membrane vesicles from terminal ileum of male New Zealand rabbits
Sequence (Q28727 1-347): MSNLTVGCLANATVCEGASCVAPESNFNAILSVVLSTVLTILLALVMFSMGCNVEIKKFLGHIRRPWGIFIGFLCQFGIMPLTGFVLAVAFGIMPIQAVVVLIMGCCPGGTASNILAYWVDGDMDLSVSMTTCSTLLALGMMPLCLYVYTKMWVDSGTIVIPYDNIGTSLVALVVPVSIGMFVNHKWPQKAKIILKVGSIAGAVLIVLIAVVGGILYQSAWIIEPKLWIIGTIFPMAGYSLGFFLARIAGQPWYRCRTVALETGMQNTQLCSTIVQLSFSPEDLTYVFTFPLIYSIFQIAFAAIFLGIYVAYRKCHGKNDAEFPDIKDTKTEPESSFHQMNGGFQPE
Assay: Inhibition of Na+-dependent [3H]-taurocholate uptake in brush border membrane vesicles of the ileum of rabbits
Format: biochemical
Details: quotient of the IC50Na of the reference substance taurochenodeoxycholate (TCDC) and of the test substance, 50 μM taurocholate, rabbit ileum vesicles
recorded.metric: IC50Na-TCDC (μmol) / IC50Na-compound (μmol)

[[record]]
molecule = "O=C(CSc1ncccn1)Nc1ccccc1[C@@H](Nc1ccccn1)[C@H](c1ccccn1)[C@H](O)c1ccccc1"
value_reported = 1.15


QUERY: // IC50Na-TCDC (μmol) / IC50Na-compound (μmol) lookup, key: "COc1ccc(CCC(=O)Nc2ccccc2[C@@H](Nc2ccccn2)[C@H](c2ccccn2)[C@H](O)c2ccccc2)cc1OC"
RESULT: 0.36

QUERY: Another molecule to look at: "Cc1ccnc(SCC(=O)Nc2ccccc2[C@@H](Nc2ccccn2)[C@H](c2ccccn2)[C@H](O)c2ccccc2)n1"
RESULT: 0.66

QUERY: Another molecule to look at: "N[C@@H](Cc1ccccc1)C(=O)N1CCC[C@H]1C(=O)Nc1ccccc1[C@@H](Nc1ccccn1)[C@H](c1ccccn1)[C@H](O)c1ccccc1"
RESULT: 1.06

QUERY: Another molecule to look at: CC1(C)[C@@H]2CCC1(CS(=O)(=O)Nc1ccccc1C(Nc1ccccn1)C(c1ccccn1)C(O)c1ccccc1)C(=O)C2 (stereo partly shown)
RESULT: 1.00

QUERY: Another molecule to look at: O=S(=O)(Nc1ccccc1C(Nc1ccccn1)C(c1ccccn1)C(O)c1ccccc1)c1cc(C(F)(F)F)cc(C(F)(F)F)c1 (stereo not shown)
RESULT: 0.27

QUERY: Another molecule to look at: "O=C(Cc1cccs1)Nc1ccccc1[C@@H](Nc1ccccn1)[C@H](c1ccccn1)[C@H](O)c1ccccc1"
RESULT: 0.81

###

Molecular target: intestinal bile acid transportation system (Na+-dependent) in brush border membrane vesicles of the ileum (Oryctolagus cuniculus, UniProt Q28727)
Construct: Preparation of Brush Border Membrane Vesicles from the Ileum of Rabbits; from tissue; host or cells: brush border membrane vesicles from terminal ileum of male New Zealand rabbits
Test: Inhibition of Na+-dependent [3H]-taurocholate uptake in brush border membrane vesicles of the ileum of rabbits
Assay type: biochemical
Conditions: quotient of the IC50Na of the reference substance taurochenodeoxycholate (TCDC) and of the test substance, 50 μM taurocholate, rabbit ileum vesicles
For each record, check the reported IC50Na-TCDC (μmol) / IC50Na-compound (μmol): if it is below 0.8 write True, else write False.

See these solved cases before continuing.
[[record]]
molecule = "O=C(CN1C(=O)c2ccccc2C1=O)Nc1ccccc1[C@@H](Nc1ccccn1)[C@H](c1ccccn1)[C@H](O)c1ccccc1"
label_value = "False"

[[record]]
molecule = "O=C(CCC(=O)c1ccc(Cl)cc1)Nc1ccccc1[C@@H](Nc1ccccn1)[C@H](c1ccccn1)[C@H](O)c1ccccc1"
label_value = "True"

[[record]]
molecule = "Cc1c(C)c(S(=O)(=O)Nc2ccccc2C(Nc2ccccn2)C(c2ccccn2)C(O)c2ccccc2)c(C)c2c1OC(C)(C)CC2 (stereo not shown)"
label_value = "True"

[[record]]
molecule = "CN(CC(=O)Nc1ccccc1[C@@H](Nc1ccccn1)[C@H](c1ccccn1)[C@H](O)c1ccccc1)C(=O)OC(C)(C)C"
label_value = "False"

[[record]]
molecule = "C#CCCC(=O)Nc1ccccc1[C@@H](Nc1ccccn1)[C@H](c1ccccn1)[C@H](O)c1ccccc1"
label_value = "False"


QUERY: Given the entry "O=C(Cc1ccc(Cl)cc1)Nc1ccccc1[C@@H](Nc1ccccn1)[C@H](c1ccccn1)[C@H](O)c1ccccc1" , would its reported IC50Na-TCDC (μmol) / IC50Na-compound (μmol) be below 0.8?
RESULT: True

QUERY: Another molecule to look at: O=S(=O)(Nc1ccccc1C(Nc1ccccn1)C(c1ccccn1)C(O)c1ccccc1)c1cc(Cl)cc(Cl)c1O (stereo not shown)
RESULT: True

QUERY: Another molecule to look at: "CCOCC(=O)Nc1ccccc1[C@@H](Nc1ccccn1)[C@H](c1ccccn1)[C@H](O)c1ccccc1"
RESULT: True

QUERY: Another molecule to look at: "N#CC1(C(=O)Nc2ccccc2[C@@H](Nc2ccccn2)[C@H](c2ccccn2)[C@H](O)c2ccccc2)CC1"
RESULT: False

QUERY: Another molecule to look at: "Cc1ccccc1OCC(=O)Nc1ccccc1[C@@H](Nc1ccccn1)[C@H](c1ccccn1)[C@H](O)c1ccccc1"
RESULT: False

QUERY: Another molecule to look at: "O=C(CNC(=O)OCc1ccccc1)Nc1ccccc1[C@@H](Nc1ccccn1)[C@H](c1ccccn1)[C@H](O)c1ccccc1"
RESULT: True

QUERY: Another molecule to look at: O=S(=O)(Nc1ccccc1C(Nc1ccccn1)C(c1ccccn1)C(O)c1ccccc1)c1ccc(F)cc1 (stereo not shown)
RESULT: False

QUERY: Another molecule to look at: O=C(O)c1ccc(S(=O)(=O)Nc2ccccc2C(Nc2ccccn2)C(c2ccccn2)C(O)c2ccccc2)cc1 (stereo not shown)
RESULT: False

###

Target: intestinal bile acid transportation system (Na+-dependent) in brush border membrane vesicles of the ileum (Oryctolagus cuniculus, UniProt Q28727)
Construct: Preparation of Brush Border Membrane Vesicles from the Ileum of Rabbits; from tissue; host or cells: brush border membrane vesicles from terminal ileum of male New Zealand rabbits
Assay: Inhibition of Na+-dependent [3H]-taurocholate uptake in brush border membrane vesicles of the ileum of rabbits
Assay type: biochemical
Conditions: quotient of the IC50Na of the reference substance taurochenodeoxycholate (TCDC) and of the test substance, 50 μM taurocholate, rabbit ileum vesicles
recorded.metric: IC50Na-TCDC (μmol) / IC50Na-compound (μmol)

Use these answered entries as a reference point.
[[record]]
compound = "CCCCOc1ccc(S(=O)(=O)Nc2ccccc2C(Nc2ccccn2)C(c2ccccn2)C(O)c2ccccc2)cc1 (stereo not drawn)"
value_reported = 0.84

[[record]]
compound = "CC(C)(C)c1ccc(S(=O)(=O)Nc2ccccc2C(Nc2ccccn2)C(c2ccccn2)C(O)c2ccccc2)cc1 (stereo not drawn)"
value_reported = 0.93

[[record]]
compound = "COc1cc(/C=C/C(=O)Nc2ccccc2[C@@H](Nc2ccccn2)[C@H](c2ccccn2)[C@H](O)c2ccccc2)ccc1O"
value_reported = 1.11

[[record]]
compound = "O=C(Cc1ccccc1C(F)(F)F)Nc1ccccc1[C@@H](Nc1ccccn1)[C@H](c1ccccn1)[C@H](O)c1ccccc1"
value_reported = 0.38

[[record]]
compound = "CN(C)c1cccc2c(S(=O)(=O)Nc3ccccc3C(Nc3ccccn3)C(c3ccccn3)C(O)c3ccccc3)cccc12 (stereo not drawn)"
value_reported = 0.90

[[record]]
compound = "O=[N+]([O-])c1ccccc1S(=O)(=O)Nc1ccccc1C(Nc1ccccn1)C(c1ccccn1)C(O)c1ccccc1 (stereo not drawn)"
value_reported = 0.84

[[record]]
compound = "CCCCCC#CC(=O)Nc1ccccc1[C@@H](Nc1ccccn1)[C@H](c1ccccn1)[C@H](O)c1ccccc1"
value_reported = 0.62

[[record]]
compound = "CC(=O)Nc1nc(C)c(S(=O)(=O)Nc2ccccc2C(Nc2ccccn2)C(c2ccccn2)C(O)c2ccccc2)s1 (stereo not drawn)"
value_reported = 1.10

[[record]]
compound = "CS(=O)(=O)c1ccc(S(=O)(=O)Nc2ccccc2C(Nc2ccccn2)C(c2ccccn2)C(O)c2ccccc2)cc1 (stereo not drawn)"
value_reported = 0.40

[[record]]
compound = "O=C(Cc1ccsc1)Nc1ccccc1[C@@H](Nc1ccccn1)[C@H](c1ccccn1)[C@H](O)c1ccccc1"
value_reported = 0.61


From here, focus on the item given below.
QUERY: // IC50Na-TCDC (μmol) / IC50Na-compound (μmol) lookup, key: CC(C)S(=O)(=O)Nc1ccccc1C(Nc1ccccn1)C(c1ccccn1)C(O)c1ccccc1 (stereo not drawn)
RESULT: 0.22

###

Biological target: intestinal bile acid transportation system (Na+-dependent) in brush border membrane vesicles of the ileum (Oryctolagus cuniculus, UniProt Q28727)
Construct: Preparation of Brush Border Membrane Vesicles from the Ileum of Rabbits; from tissue; host or cells: brush border membrane vesicles from terminal ileum of male New Zealand rabbits
Test: Inhibition of Na+-dependent [3H]-taurocholate uptake in brush border membrane vesicles of the ileum of rabbits
Format: biochemical
Details: quotient of the IC50Na of the reference substance taurochenodeoxycholate (TCDC) and of the test substance, 50 μM taurocholate, rabbit ileum vesicles
Reported IC50Na-TCDC (μmol) / IC50Na-compound (μmol) values for a set of compounds

[[record]]
compound = "CCOC(=O)/C=C/C(=O)Nc1ccccc1[C@@H](Nc1ccccn1)[C@H](c1ccccn1)[C@H](O)c1ccccc1"
value_reported = 0.79

[[record]]
compound = "O=C(/C=C/c1cccs1)Nc1ccccc1[C@@H](Nc1ccccn1)[C@H](c1ccccn1)[C@H](O)c1ccccc1"
value_reported = 0.46

[[record]]
compound = "O=C(COc1ccc(F)cc1)Nc1ccccc1[C@@H](Nc1ccccn1)[C@H](c1ccccn1)[C@H](O)c1ccccc1"
value_reported = 1.05


From here, focus on the item given below.
QUERY: // IC50Na-TCDC (μmol) / IC50Na-compound (μmol) lookup, key: O=S(=O)(Nc1ccccc1C(Nc1ccccn1)C(c1ccccn1)C(O)c1ccccc1)c1ccc(Cl)s1 (stereo not shown)
RESULT: 0.79
